# experimental system: EGFR (Homo sapiens, UniProt P00533)
# Sequence (P00533 25-1210): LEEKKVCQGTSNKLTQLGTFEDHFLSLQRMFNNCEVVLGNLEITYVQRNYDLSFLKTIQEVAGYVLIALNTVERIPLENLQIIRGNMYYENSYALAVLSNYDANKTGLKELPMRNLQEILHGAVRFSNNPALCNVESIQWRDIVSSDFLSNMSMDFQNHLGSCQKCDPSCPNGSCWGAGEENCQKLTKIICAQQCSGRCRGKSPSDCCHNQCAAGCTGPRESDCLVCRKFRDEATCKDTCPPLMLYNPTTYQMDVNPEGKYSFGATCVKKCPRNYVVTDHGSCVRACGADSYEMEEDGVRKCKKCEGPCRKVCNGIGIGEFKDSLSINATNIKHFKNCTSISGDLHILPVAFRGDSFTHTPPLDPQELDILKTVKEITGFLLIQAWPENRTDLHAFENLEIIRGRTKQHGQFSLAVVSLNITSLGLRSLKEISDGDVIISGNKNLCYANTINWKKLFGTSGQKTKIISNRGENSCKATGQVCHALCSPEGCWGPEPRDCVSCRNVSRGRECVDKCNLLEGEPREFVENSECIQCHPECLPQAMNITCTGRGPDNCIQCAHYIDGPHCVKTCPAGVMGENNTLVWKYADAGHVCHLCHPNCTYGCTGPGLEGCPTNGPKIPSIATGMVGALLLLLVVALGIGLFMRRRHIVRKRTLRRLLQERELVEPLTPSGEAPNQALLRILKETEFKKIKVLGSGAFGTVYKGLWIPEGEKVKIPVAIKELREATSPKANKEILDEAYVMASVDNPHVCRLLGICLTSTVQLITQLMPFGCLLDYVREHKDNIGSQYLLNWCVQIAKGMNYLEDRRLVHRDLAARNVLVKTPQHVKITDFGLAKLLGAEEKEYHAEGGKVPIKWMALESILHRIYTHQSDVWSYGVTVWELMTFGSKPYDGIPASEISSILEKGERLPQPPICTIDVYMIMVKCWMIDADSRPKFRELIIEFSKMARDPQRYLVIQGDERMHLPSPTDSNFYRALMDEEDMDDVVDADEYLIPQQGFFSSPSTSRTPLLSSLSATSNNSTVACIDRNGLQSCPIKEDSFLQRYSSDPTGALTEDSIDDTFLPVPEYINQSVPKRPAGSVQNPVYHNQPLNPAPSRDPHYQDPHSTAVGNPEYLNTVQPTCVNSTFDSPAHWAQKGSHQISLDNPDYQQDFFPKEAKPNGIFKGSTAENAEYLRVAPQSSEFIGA
# procedure text: EGFR assay (cellular ELISA, NIH 3T3/C7 cells)
# Format: cell-based
# Design: expressed in transfected cells; host or cells: NIH 3T3/C7
# test parameters: read-out: cell EGF IC50
# Protocol: EGF Receptor kinase activity in cells genetically engineered to express human EGF-R can be measured as described below: Materials and Reagents. • a. […] 05-101 (UBI) (a monoclonal antibody recognizing an EGFR extracellular domain). • c. Anti-phosphotyosine antibody (anti-Ptyr) (polyclonal). • d. […] Assay Procedures. • 1. […] The maximal phosphotyrosine signal is determined by subtracting the value of the negative controls from the positive controls. […]
metric: IC50 (µM)
Please respond with the number in µM and leave the unit unwritten.

Qu. Item under review: CC(=O)Nc1ccc2c(c1)NC(=O)/C2=C/c1ccc(OCCN2CCOCC2)c(C(C)(C)C)c1 [Example 55] . Reported IC50?
Ans. 78.4

Qu. IC50 lookup needed for COc1ccc(/C=C2/C(=O)Nc3ccc(Br)cc32)cc1-c1ccccc1 [Example 13] , thanks.
Ans. 30.8

Qu. Dear colleague, I am looking for the recorded IC50 of the following compound: COc1c(C(C)C)cc(/C=C2\C(=O)Nc3cccc(C)c32)cc1C(C)C [Example 53]
Ans. 85

Qu. Requested read-out: IC50. Entry: COc1cc(C)c(C=C2C(=O)Nc3ccccc32)cc1C(C)C [Example 8]
Ans. 43.7

Qu. Item under review: COc1ccc(/C=C2/C(=O)Nc3ccc(F)cc32)cc1C1CCCC1 [Example 11] . Reported IC50?
Ans. 72.9

Qu. Tell me the measured IC50 of COc1ccc(/C=C2/C(=O)Nc3ccc(CCN4CCOCC4)cc32)cc1-c1ccsc1 [Example 26] , please.
Ans. 94

Qu. Record request: IC50 value, item COc1ccc(/C=C2/C(=O)Nc3ccccc32)cc1C1CCCC1 [Example 10]
Ans. 56.1

Qu. Can you share its IC50? I mean this compound: CC(=O)Nc1ccc2c(c1)NC(=O)/C2=C/c1ccc(OCCN2CCOCC2)c(C2CCCCC2)c1 [Example 16]
Ans. 44.5

Qu. Name the recorded IC50 for COC(=O)c1ccc2c(c1)/C(=C\c1cc(C(C)C)c(OC)c(C(C)C)c1)C(=O)N2 [Example 6] .
Ans. 40.5

Qu. For the compound shown here, CC1(C)CCc2cc(/C=C3/C(=O)Nc4ccc(F)cc43)ccc2O1 [Example 23] , give the reported IC50.
Ans. 37.7

Qu. State the recorded IC50 for this entry: COc1c(C)cc(/C=C2/C(=O)Nc3ccc(Cl)cc32)cc1C [Example 21]
Ans. 18.5

###

# experimental system: chimeric receptor containing the EGFR extracellular domain and intracellular HER2 kinase domain (Homo sapiens)
# Construct: fused on or other part: EGFR ectodomain + HER2 intracellular part, ATP-site indolinones: HER2's kinase
# Sequence (P04626 720-1255 limits assumed, change not shown): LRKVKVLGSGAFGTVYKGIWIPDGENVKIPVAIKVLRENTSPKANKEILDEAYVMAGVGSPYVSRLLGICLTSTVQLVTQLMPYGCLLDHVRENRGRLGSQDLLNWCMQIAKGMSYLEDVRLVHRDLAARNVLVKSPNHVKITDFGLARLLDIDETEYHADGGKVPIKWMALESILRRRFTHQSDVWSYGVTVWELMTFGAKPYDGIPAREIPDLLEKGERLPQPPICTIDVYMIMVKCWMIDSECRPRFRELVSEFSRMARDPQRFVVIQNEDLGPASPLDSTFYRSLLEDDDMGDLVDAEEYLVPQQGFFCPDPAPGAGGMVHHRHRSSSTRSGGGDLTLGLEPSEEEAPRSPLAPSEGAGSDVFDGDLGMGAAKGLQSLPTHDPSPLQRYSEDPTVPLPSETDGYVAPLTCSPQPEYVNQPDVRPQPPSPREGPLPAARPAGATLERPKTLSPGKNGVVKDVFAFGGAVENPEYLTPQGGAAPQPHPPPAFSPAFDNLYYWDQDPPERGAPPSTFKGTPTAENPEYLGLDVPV
# procedure text: EGF Receptor-HER2 chimeric receptor assay in whole cells (ELISA)
# test parameters: read-out: HER-2 kinase IC50
metric: log10 IC50 (log10 of the value in µM)
The common logarithm of IC50 in µM is what is listed.

Qu. Any idea what log10 IC50 was measured for COc1c(C(C)C)cc(/C=C2/C(=O)Nc3ccc(C)cc32)cc1C(C)C [Example 19] ?
Ans. 0.96

Qu. log10 IC50 lookup needed for COc1c(C(C)C)cc(/C=C2/C(=O)Nc3cc(NC(=O)OC(C)(C)C)ccc32)cc1C(C)C [Example 52] , thanks.
Ans. 1.86

Qu. Would you mind telling me what log10 IC50 value was observed for COc1c(C)cc(/C=C2/C(=O)Nc3ncccc32)cc1C [Example 56] ?
Ans. 1.98

Qu. # get_value(readout='log10 IC50', item= COc1ccc(/C=C2\C(=O)Nc3cccc(C)c32)cc1C(C)C [Example 38] )
Ans. 1.51

Qu. Bench note: what log10 IC50 did COC(=O)c1ccc2c(c1)/C(=C\c1cc(C(C)C)c(OC)c(C(C)C)c1)C(=O)N2 [Example 6] show?
Ans. 1.18

Qu. Using the record for CC(C)c1cc(/C=C2/C(=O)Nc3ccc(Cl)cc32)cc(C(C)C)c1OCCN1CCOCC1 [Example 24] , report its log10 IC50.
Ans. 1.13

Qu. Record request: log10 IC50 value, item COc1c(C(C)C)cc(/C=C2/C(=O)Nc3ccc(Cl)cc32)cc1C(C)C [Example 2]
Ans. 1.14

Qu. Quick one: log10 IC50 of COc1cc(C)c(C=C2C(=O)Nc3ccccc32)cc1C(C)C [Example 8] ?
Ans. 0.92

Qu. For CCOc1cccc(-c2cc(C=C3C(=O)Nc4ccccc43)ccc2OC)c1 [Example 46] , what is its reported log10 IC50?
Ans. 1.78

###

# experimental system: chimeric receptor having the extra-cellular domain of EGF-R and the intra-cellular domain of Her2 (Homo sapiens, UniProt P04626)
# Construct: fused on or other part: the same chimera
# Sequence (P04626 676-1255 limits assumed, change not shown): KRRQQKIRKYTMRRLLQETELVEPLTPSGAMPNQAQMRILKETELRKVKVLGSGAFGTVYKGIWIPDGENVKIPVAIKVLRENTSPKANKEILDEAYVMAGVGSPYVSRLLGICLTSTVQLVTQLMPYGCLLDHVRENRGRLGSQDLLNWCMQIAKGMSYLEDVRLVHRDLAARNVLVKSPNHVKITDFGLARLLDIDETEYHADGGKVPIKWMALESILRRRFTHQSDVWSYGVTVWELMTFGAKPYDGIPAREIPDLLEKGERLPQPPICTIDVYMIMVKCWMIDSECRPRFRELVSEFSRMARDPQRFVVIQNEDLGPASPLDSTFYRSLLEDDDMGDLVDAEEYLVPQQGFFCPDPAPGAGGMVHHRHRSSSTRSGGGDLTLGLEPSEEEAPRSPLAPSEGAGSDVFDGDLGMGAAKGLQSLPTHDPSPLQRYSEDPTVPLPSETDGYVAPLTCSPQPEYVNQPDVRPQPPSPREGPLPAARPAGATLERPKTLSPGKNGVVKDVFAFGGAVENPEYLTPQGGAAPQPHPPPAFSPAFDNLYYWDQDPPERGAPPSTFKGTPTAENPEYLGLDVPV
# procedure text: EGF-induced Her2-driven BrdU incorporation
# test parameters: read-out: BrdU HER 2 driven IC50
Response field label: string, one of condition met (IC50 strictly below 20 µM) or condition not met.

Qu. Lab log: compare recorded IC50 with 20 µM; is it strictly lower for CC(=O)Nc1ccc2c(c1)NC(=O)/C2=C/c1ccc(OCCN2CCOCC2)c(-c2ccsc2)c1 [Example 50] ?
Ans. condition not met

Qu. Lab log: compare recorded IC50 with 20 µM; is it strictly lower for CCOc1cccc(-c2cc(OC)c(OC)cc2/C=C2/C(=O)Nc3ccccc32)c1 [Example 58] ?
Ans. condition met

Qu. Does this molecule meet the criterion IC50 < 20 µM? CC(C)c1cc(/C=C2/C(=O)Nc3ccc(Br)cc32)cc(C(C)C)c1OCCN1CCOCC1 [Example 57]
Ans. condition met

Qu. Consider CC1(C)CCc2cc(/C=C3/C(=O)Nc4ccc(Cl)cc43)ccc2O1 [Example 15] . Does its IC50 lie strictly below 20 µM?
Ans. condition met

Qu. Lab note: confirm whether the reported IC50 for this molecule is below 20 µM, equality not counting. molecule: COc1cc(C)c(C=C2C(=O)Nc3cc(NC(C)=O)ccc32)cc1C(C)C [Example 27]
Ans. condition not met

Qu. Determine whether this molecule shows IC50 lower than 20 µM (ties excluded): COc1ccc(/C=C2/C(=O)Nc3cc(NC(C)=O)ccc32)cc1-c1cccs1 [Example 31]
Ans. condition not met

Qu. Does this molecule meet the criterion IC50 < 20 µM? COc1c(C(C)C)cc(/C=C2/C(=O)Nc3ccc(C)cc32)cc1C(C)C [Example 19]
Ans. condition met

Qu. Please determine if CC(C)c1cc(/C=C2/C(=O)Nc3ccc(Cl)cc32)cc(C(C)C)c1OCCN1CCOCC1 [Example 24] is below 20 µM in terms of IC50.
Ans. condition met

Qu. Is 20 µM strictly greater than the molecule's reported IC50? molecule: COc1c(C(C)C)cc(/C=C2/C(=O)Nc3ccc(N)cc32)cc1C(C)C [Example 20]
Ans. condition met

Qu. Just wondering, is IC50 of COc1ccc(/C=C2/C(=O)Nc3cc(NC(C)=O)ccc32)cc1-c1ccsc1 [Example 18] below 20 µM?
Ans. condition not met

Qu. Lab log: compare recorded IC50 with 20 µM; is it strictly lower for COc1c(C(C)C)cc(/C=C2/C(=O)Nc3cc(O)ccc32)cc1C(C)C [Example 4] ?
Ans. condition met

Qu. Criterion: IC50 strictly below 20 µM. Is it met by COc1cc(C)c(/C=C2/C(=O)Nc3ccc(Br)cc32)cc1C(C)C [Example 36] ?
Ans. condition not met

Qu. # strict comparison: is reported IC50 < 20 µM? input = COc1cc(/C=C2/C(=O)Nc3ccccc32)c(-c2ccc3ccccc3c2)cc1OC [Example 62]
Ans. condition not met

Qu. # strict comparison: is reported IC50 < 20 µM? input = COc1ccc(/C=C2/C(=O)Nc3ncccc32)cc1C1CCCC1 [Example 47]
Ans. condition not met

Qu. is_below(IC50, 20 µM) for COc1ccc(/C=C2/C(=O)Nc3ccccc32)cc1C1CCCC1 [Example 10] ?
Ans. condition met

Qu. Please indicate whether the reported IC50 of COc1ccc(/C=C2/C(=O)Nc3ccccc32)cc1C(C)C [Example 7] is strictly below 20 µM.
Ans. condition met

Qu. Lab log: compare recorded IC50 with 20 µM; is it strictly lower for COc1ccc(/C=C2/C(=O)Nc3ccc(Br)cc32)cc1-c1ccccc1 [Example 13] ?
Ans. condition met

Qu. Given COc1cccc(-c2cc(OC)c(OC)cc2/C=C2/C(=O)Nc3ccc(Cl)cc32)c1 [Example 61] , is recorded IC50 strictly lower than 20 µM?
Ans. condition not met
